Let's go through some recorded IC50 values for UniProtKB P06493 together.
Sequence (P06493 whole entry): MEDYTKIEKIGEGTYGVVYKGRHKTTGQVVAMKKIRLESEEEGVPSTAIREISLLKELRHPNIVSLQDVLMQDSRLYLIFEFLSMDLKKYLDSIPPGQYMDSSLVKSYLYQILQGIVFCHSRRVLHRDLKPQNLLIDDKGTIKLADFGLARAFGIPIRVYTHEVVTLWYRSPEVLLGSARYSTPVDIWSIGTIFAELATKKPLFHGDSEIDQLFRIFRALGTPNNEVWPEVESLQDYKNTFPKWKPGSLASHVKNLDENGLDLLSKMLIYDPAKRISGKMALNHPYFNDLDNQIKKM
Answers are plain numbers, in nM.

// each compound listed below needs its IC50
1. COc1ccc(NC(=S)NC(=O)c2cn(-c3ccccc3)nc2-c2ccc(C)cc2)cc1
2. COc1ccc(NC(=S)NC(=O)c2cn(-c3ccccc3)nc2-c2ccc(OC)cc2)cc1
3. COc1ccc(NC(=S)NC(=O)c2cn(-c3ccccc3)nc2-c2ccc(F)cc2)cc1
4. COc1ccc(NC(=S)NC(=O)c2cn(-c3ccccc3)nc2-c2ccccc2)cc1
5. COc1ccc(NC(=S)NC(=O)c2cn(-c3ccccc3)nc2-c2ccc(Cl)cc2)cc1

584
522
569
610
571
